Data credit: ChEMBL document CHEMBL2057196

test: AUCt in Balb/c-A mouse at 50 mg/kg, po in a solution containing 2.5% DMA, 2.5% Tween 80 and 10% cremophor EL; assay type: ADME, organism-based; design: dose 50 mg/kg, route oral; details: plasma
measurementLabel: AUC(0-t)
Write the numeric value and follow it with the unit.

GET /value?item= C[C@@H](NS(=O)(=O)CCCOCn1ccc(=O)[nH]c1=O)c1ccc(F)c(OCC2CC2)c1 &field=AUC(0-t) returns 24.9 µM·h

* * *

target: Deoxyuridine 5'-triphosphate nucleotidohydrolase, mitochondrial (Homo sapiens, UniProt P33316); test: Inhibition of human dUTPase assessed as production of [5-3H]dUMP from [5-3H]dUTP after 15 mins measured by HPLC analysis
Sequence (P33316 whole entry): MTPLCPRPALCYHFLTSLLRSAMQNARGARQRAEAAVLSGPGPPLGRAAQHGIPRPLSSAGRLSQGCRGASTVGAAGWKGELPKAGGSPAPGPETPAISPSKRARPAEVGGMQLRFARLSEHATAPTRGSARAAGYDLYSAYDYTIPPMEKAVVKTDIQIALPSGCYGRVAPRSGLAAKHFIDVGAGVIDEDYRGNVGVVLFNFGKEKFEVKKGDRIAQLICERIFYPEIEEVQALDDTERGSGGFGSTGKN
measurementLabel: pIC50
// returns pIC50 (minus log10 of molar concentration), number only

Examples with answers:
C[C@@H](NS(=O)(=O)CCCOCn1ccc(=O)[nH]c1=O)c1ccc(F)c(OCC2CC2)c1 :: 7.68
C[C@@H](NS(=O)(=O)CCCOCn1ccc(=O)[nH]c1=O)c1cccc(OCC2CC2)c1 :: 7.40
C[C@H](NS(=O)(=O)CCCOCn1ccc(=O)[nH]c1=O)c1cccc(OCC2CC2)c1 :: 5.60
COc1ccc(S(=O)(=O)NC(C)(C)CCCOCn2ccc(=O)[nH]c2=O)cc1 :: 4.74
COc1cc(C)ccc1S(=O)(=O)NC(C)(C)CCCOCn1ccc(=O)[nH]c1=O :: 4.71
O=c1ccn(COCCOS(=O)(=O)NS(=O)(=O)c2ccccc2)c(=O)[nH]1 :: 5.51
CC(C)(CCCOCn1ccc(=O)[nH]c1=O)NS(=O)(=O)c1cccc(OCC2CC2)c1 :: 7.46
CC(C)(C)[Si](C)(C)OCCOCn1ccc(=O)[nH]c1=O :: 4.00

GET /value?item= COc1cccc(S(=O)(=O)NC(C)(C)CCCOCn2ccc(=O)[nH]c2=O)c1 &field=pIC50 returns 5.92

GET /value?item= CC(NS(=O)(=O)CCCOCn1ccc(=O)[nH]c1=O)c1cccc(OCC2CC2)c1 (racemic) &field=pIC50 returns 7.21
